TESTED TARGET: Peroxisome proliferator-activated receptor gamma (Homo sapiens) (UniProt P37231)
Sequence (P37231 whole entry, looked up): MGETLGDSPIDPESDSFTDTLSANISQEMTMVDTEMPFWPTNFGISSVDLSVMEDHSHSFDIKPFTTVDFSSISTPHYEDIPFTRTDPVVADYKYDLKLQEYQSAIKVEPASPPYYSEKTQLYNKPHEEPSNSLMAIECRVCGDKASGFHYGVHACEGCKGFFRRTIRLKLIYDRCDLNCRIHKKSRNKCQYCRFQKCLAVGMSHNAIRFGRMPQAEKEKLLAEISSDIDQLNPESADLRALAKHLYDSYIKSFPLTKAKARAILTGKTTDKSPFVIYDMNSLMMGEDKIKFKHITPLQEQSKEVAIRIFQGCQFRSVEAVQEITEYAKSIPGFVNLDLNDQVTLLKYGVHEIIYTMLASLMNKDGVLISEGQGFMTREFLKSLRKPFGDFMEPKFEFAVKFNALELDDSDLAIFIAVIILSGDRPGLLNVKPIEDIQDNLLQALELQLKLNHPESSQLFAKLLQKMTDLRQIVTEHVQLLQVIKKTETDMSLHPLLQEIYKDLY
METHOD: ATG_hPPARg_XSP2: Attagene TRANS-FACTORIAL Multi-Species (XSP2) HepG2 Assay for human Peroxisome Proliferator-activated Receptor gamma (PPARg) (AID 2283829);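 further: actives raise reporter mRNA above DMSO so AC50 reflects PPARg activation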
Inconclusive results are not listed. Activity calls are given as the source filed them. How the source made its calls: active means hit-call score of the fitted dose curve at least 0.9, where 1 is the maximum; inconclusive means response in the unintended direction; inactive means score below 0.9.
ASSAY READOUT: AC50

Would you please look over these solved cases?
{"columns": ["COMPOUND", "AC50"],
 "data": [
  ["CC(=O)S[C@@H]1CC2=CC(=O)CC[C@]2(C)[C@H]2CC[C@@]3(C)[C@@H](CC[C@@]34CCC(=O)O4)[C@H]12", "inactive"],
  ["C=CCOC(Cn1ccnc1)c1ccc(Cl)cc1Cl (configuration not stated)", "82.2 µM (active)"],
  ["CN(C)C(=O)Nc1ccc(Cl)c(Cl)c1", "inactive"],
  ["CC(C)(c1ccc(O)cc1)c1ccc(O)cc1", "inactive"],
  ["CCN(Cc1c(F)cccc1Cl)c1c([N+](=O)[O-])cc(C(F)(F)F)cc1[N+](=O)[O-]", "inactive"]
]}

AC50 reported for this compound O=C(c1ccc(O)cc1O)c1ccc(O)cc1O : inactive

AC50 reported for this compound CCCCC(CC)CN1C(=O)C2C3C=CC(C3)C2C1=O (configuration not stated) : 100 µM (active)

----------
METHOD: CCTE_Shafer_MEA_acute_burst_percentage_std: CCTE's Neural Acute Assay for Standard Deviation of Burst Percentage, Shafer Lab (AID 2284018);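 further: fitted in the negative direction so actives lower burst percentage SD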
Calls of active or inactive are those of the source. The calls were made as follows: active = hit-call score of the fitted dose curve at least 0.9, where 1 is the maximum; inactive = score below 0.9.
Pick one and only one: Yes (active), No (inactive)

Example cases with answers are listed next.
{"columns": ["COMPOUND", "LABEL VALUE"],
 "data": [
  ["C#CCOC(=O)[C@@H](C)Oc1ccc(Oc2ncc(Cl)cc2F)cc1", "No"],
  ["Cc1nn(C)c(Oc2ccccc2)c1C=NOCc1ccc(C(=O)OC(C)(C)C)cc1", "Yes"],
  ["O=C(Nc1ccc([N+](=O)[O-])cc1Cl)c1cc(Cl)ccc1O", "No"],
  ["C=CCOC(Cn1ccnc1)c1ccc(Cl)cc1Cl (configuration not stated)", "Yes"],
  ["CSC(=O)c1cccc2nnsc12", "No"],
  ["CC(C)(c1ccc(O)cc1)c1ccc(O)cc1", "No"]
]}

Problem: How was OB(O)O classified in this test?
Solution: No

----------
Read-out: Interferon-gamma inducible Protein 10 (IP10), CXCL10 (gene 3627)
METHOD: BSK_hDFCGF_IP10: BioMAP Diversity Plus: hDFCGF Assay for Interferon-gamma inducible Protein 10 (IP10) Biomarker Activity (AID 2283053)
APPLIED CONDITIONS: primary human foreskin fibroblasts; actives raise or lower the signal
Calls of active or inactive are those of the source. Rule for the calls: active = hit-call score of the fitted dose curve at least 0.9, where 1 is the maximum; inactive = score below 0.9.
Pick one and only one: TRUE for active, FALSE for inactive

Example cases with answers are listed next.
{"columns": ["MOLECULE", "LABEL VALUE"],
 "data": [
  ["CCOC(=O)c1ccc(O)cc1", "FALSE"],
  ["CN(C)C(=O)Nc1ccc(Cl)c(Cl)c1", "FALSE"],
  ["CCCCC(CC)CN1C(=O)C2C3C=CC(C3)C2C1=O (centres undefined)", "TRUE"]
]}

Problem: How was CCOC(=O)C(C)Oc1ccc(Oc2cnc3cc(Cl)ccc3n2)cc1 (centres undefined) classified in this test?
Solution: FALSE

Problem: How was COC(=O)c1cccc(C)c1S(=O)(=O)NC(=O)Nc1nc(OCC(F)(F)F)nc(N(C)C)n1 classified in this test?
Solution: FALSE

Problem: How was O=C(Nc1ccc([N+](=O)[O-])cc1Cl)c1cc(Cl)ccc1O classified in this test?
Solution: TRUE

----------
Read-out: E-selectin (Homo sapiens) (UniProt P16581)
Sequence (P16581 whole entry, looked up): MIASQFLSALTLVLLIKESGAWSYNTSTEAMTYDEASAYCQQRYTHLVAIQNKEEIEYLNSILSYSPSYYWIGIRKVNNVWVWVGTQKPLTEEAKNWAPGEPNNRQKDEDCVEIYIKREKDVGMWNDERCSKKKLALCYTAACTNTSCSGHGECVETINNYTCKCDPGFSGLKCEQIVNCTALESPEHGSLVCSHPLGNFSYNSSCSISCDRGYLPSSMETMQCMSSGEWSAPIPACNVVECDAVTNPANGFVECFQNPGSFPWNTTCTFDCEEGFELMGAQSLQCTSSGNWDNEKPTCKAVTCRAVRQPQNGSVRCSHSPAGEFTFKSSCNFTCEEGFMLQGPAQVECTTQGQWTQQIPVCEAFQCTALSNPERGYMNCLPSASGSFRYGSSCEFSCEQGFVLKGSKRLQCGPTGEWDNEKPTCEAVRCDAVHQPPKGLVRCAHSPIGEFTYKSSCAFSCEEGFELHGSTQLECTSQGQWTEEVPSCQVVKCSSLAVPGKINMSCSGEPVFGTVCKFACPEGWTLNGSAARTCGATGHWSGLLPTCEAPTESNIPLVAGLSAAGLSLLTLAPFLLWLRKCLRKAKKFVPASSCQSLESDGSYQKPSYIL
METHOD: BSK_3C_Eselectin: BioMAP Diversity Plus: 3C Assay for Eselectin Biomarker Activity (AID 2283015)
APPLIED CONDITIONS: primary human endothelial cells (HUVEC); actives raise or lower the signal
Active and inactive are the calls of the source. Rule for the calls: active = hit-call score of the fitted dose curve at least 0.9, where 1 is the maximum; inactive = score below 0.9.
Pick one and only one: active, inactive

Example cases with answers are listed next.
{"columns": ["COMPOUND", "LABEL VALUE"],
 "data": [
  ["O=C(O)C1(C(=O)Nc2ccc(Cl)cc2Cl)CC1", "inactive"],
  ["CN(C)C(=O)Nc1ccc(Cl)c(Cl)c1", "inactive"],
  ["CC(C)CCCCCCc1ccc(O)cc1", "active"]
]}

We now examine a further compound.
Problem: How was CCCN(CCC)C(=O)SCC classified in this test?
Solution: inactive

----------
Read-out: Monokine induced gamma interferon (MIG), CXCL9 (gene 4283)
METHOD: BSK_hDFCGF_MIG: BioMAP Diversity Plus: hDFCGF Assay for Monokine induced gamma interferon (MIG) Biomarker Activity (AID 2283063)
APPLIED CONDITIONS: primary human foreskin fibroblasts; actives raise or lower the signal
Active and inactive are the calls of the source. How the source made its calls: active means hit-call score of the fitted dose curve at least 0.9, where 1 is the maximum; inactive means score below 0.9.
Pick one and only one: true (1) (active), false (0) (inactive)

{"columns": ["MOLECULE", "LABEL VALUE"],
 "data": [
  ["CCCCCCC(C)OC(=O)COc1nc(F)c(Cl)c(N)c1Cl (stereo unspecified)", "true (1)"],
  ["CC(C)(C)[C@@H](O)[C@@H](Cc1ccc(Cl)cc1)n1cncn1", "false (0)"],
  ["OB(O)O", "false (0)"],
  ["COc1c(Cl)ccc(Cl)c1C(=O)O", "false (0)"],
  ["COC(=O)c1ccccc1C(=O)O", "false (0)"],
  ["CSC(=O)c1cccc2nnsc12", "false (0)"],
  ["CC(=O)S[C@@H]1CC2=CC(=O)CC[C@]2(C)[C@H]2CC[C@@]3(C)[C@@H](CC[C@@]34CCC(=O)O4)[C@H]12", "true (1)"],
  ["N[C@@H](Cc1cc(I)c(Oc2ccc(O)c(I)c2)c(I)c1)C(=O)O", "false (0)"],
  ["C=CCOC(Cn1ccnc1)c1ccc(Cl)cc1Cl (stereo unspecified)", "false (0)"],
  ["COC(=O)c1cccc(C)c1S(=O)(=O)NC(=O)Nc1nc(OCC(F)(F)F)nc(N(C)C)n1", "false (0)"]
]}

Problem: How was COC(=O)c1c(Cl)nn(C)c1S(=O)(=O)NC(=O)Nc1nc(OC)cc(OC)n1 classified in this test?
Solution: false (0)

----------
METHOD: ATG_PBREM_CIS: Attagene CIS-FACTORIAL HepG2 Assay for human Phenobarbital-responsive Enhancer Module (PBREM) (AID 2282955)
APPLIED CONDITIONS: HepG2 PBREM cis-reporter, Attagene multiplexed transcription; actives raise or lower the signal
Activity calls are given as the source filed them. Rule for the calls: active = hit-call score of the fitted dose curve at least 0.9, where 1 is the maximum; inactive = score below 0.9.
Pick one and only one: active, inactive

Example cases with answers are listed next.
{"columns": ["COMPOUND", "LABEL VALUE"],
 "data": [
  ["CCSC(=O)N(CC(C)C)CC(C)C", "inactive"],
  ["C[C@]12C[C@H](O)[C@H]3[C@@H](CCC4=CC(=O)CC[C@@]43C)[C@@H]1CC[C@@H]2C(=O)CO", "inactive"],
  ["CC(=O)S[C@@H]1CC2=CC(=O)CC[C@]2(C)[C@H]2CC[C@@]3(C)[C@@H](CC[C@@]34CCC(=O)O4)[C@H]12", "inactive"]
]}

Problem: How was CSC(=O)c1cccc2nnsc12 classified in this test?
Solution: inactive

Problem: How was CCCCC(CC)CN1C(=O)C2C3C=CC(C3)C2C1=O (centres undefined) classified in this test?
Solution: active

Problem: How was COC(=O)CSc1cc(N=c2sc(=O)n3n2CCCC3)c(F)cc1Cl classified in this test?
Solution: inactive

Problem: How was CN(C)C(=O)Nc1ccc(Cl)c(Cl)c1 classified in this test?
Solution: inactive

Problem: How was O=C(c1ccc(O)cc1O)c1ccc(O)cc1O classified in this test?
Solution: inactive

Problem: How was CCOC(=O)c1ccc(O)cc1 classified in this test?
Solution: inactive

----------
METHOD: CCTE_Shafer_MEA_dev_network_spike_peak: CCTE's Neural Network Formation Assay for Mean Number of Electrodes in Network Spike, Shafer Lab (AID 2284049)
Activity calls are given as the source filed them. Rule for the calls: active = hit-call score of the fitted dose curve at least 0.9, where 1 is the maximum; inactive = score below 0.9.
Pick one and only one: active, inactive

Example cases with answers are listed next.
{"columns": ["CHEMICAL STRING", "LABEL VALUE"],
 "data": [
  ["Cc1nn(C)c(Oc2ccccc2)c1C=NOCc1ccc(C(=O)OC(C)(C)C)cc1", "active"],
  ["Oc1ccc(C(c2ccc(O)cc2)C(Cl)(Cl)Cl)cc1", "active"],
  ["OB(O)O", "inactive"],
  ["O=C(O)c1ccccc1", "inactive"],
  ["S=C([S-])NCCNC(=S)[S-].[Mn+2]", "inactive"],
  ["CCCCOCCOCCOCc1cc2c(cc1CCC)OCO2", "active"],
  ["COCCO", "inactive"],
  ["C#CCOC(=O)[C@@H](C)Oc1ccc(Oc2ncc(Cl)cc2F)cc1", "inactive"]
]}

We now examine a further compound.
Problem: How was CCN(CC)C(=O)c1cccc(C)c1 classified in this test?
Solution: inactive
